settings: in ethyl butyrate, 303.15 K
value type: solubility (mole fraction)
Keep the answer to the number alone.

Request: I would be grateful if you could share the reported solubility (mole fraction) for O=C1CCCC(=O)C1 .
Response: 0.0148

###

settings: in isopropyl acetate, 293.15 K
value type: solubility (mole fraction)

Request: Please report the recorded solubility (mole fraction) for O=C1CCCC(=O)C1 .
Response: 0.0146

###

settings: in isopropyl acetate, 288.15 K
value type: solubility (mole fraction)
Just the number, please, no unit attached.

Request: Query (compound): O=C1CCCC(=O)C1 ; field requested: solubility (mole fraction)
Response: 0.0125

###

conditions: in chloroform, 318.15 K
value type: solubility (mole fraction)
// return a plain number; no unit text

Request: Which solubility (mole fraction) reading was recorded for the molecule O=C1CCCC(=O)C1 ?
Response: 0.432

###

details: in chloroform, 303.15 K
value type: solubility (mole fraction)

Request: Entry O=C1CCCC(=O)C1 has what solubility (mole fraction)?
Response: 0.317

###

details: in n-propyl acetate, 313.15 K
value type: solubility (mole fraction)
Lab note: jot the number down without any unit.

Request: Can you share its solubility (mole fraction)? I mean this compound: O=C1CCCC(=O)C1
Response: 0.0324

###

details: in ethyl propionate, 328.15 K
value type: solubility (mole fraction)
Enter a number only.

Request: For the compound O=C1CCCC(=O)C1 , what solubility (mole fraction) is on record?
Response: 0.0495

###

settings: in isopropyl acetate, 303.15 K
value type: solubility (mole fraction)
Form field (numeric): enter value without unit.

Request: Fill blank: measured solubility (mole fraction) of the molecule O=C1CCCC(=O)C1 is ____.
Response: 0.0194

###

settings: in methyl acetate, 303.15 K
value type: solubility (mole fraction)
Answer with the value's number alone.

Request: Which solubility (mole fraction) is reported for this molecule? O=C1CCCC(=O)C1
Response: 0.0313

###

settings: in acetonitrile, 303.15 K
value type: solubility (mole fraction)
Would you mind answering with just the numeric figure?

Request: # get_value(readout='solubility (mole fraction)', item= O=C1CCCC(=O)C1 )
Response: 0.035

###

conditions: in THF, 308.15 K
value type: solubility (mole fraction)
# output: bare number, no unit

Request: Could you tell me which solubility (mole fraction) is on file for O=C1CCCC(=O)C1 ?
Response: 0.208

###

conditions: in toluene, 298.15 K
value type: solubility (mole fraction)
Answer as a number with no unit attached.

Request: Item O=C1CCCC(=O)C1 has what recorded solubility (mole fraction)?
Response: 0.00335

###

conditions: in ethyl butyrate, 288.15 K
value type: solubility (mole fraction)
I'd appreciate a reply containing only the number, no unit.

Request: Report solubility (mole fraction) for O=C1CCCC(=O)C1 please.
Response: 0.0083

###

conditions: in n-butyl acetate, 288.15 K
value type: solubility (mole fraction)
Please give only the number in your answer, with no unit.

Request: Returns the measured solubility (mole fraction) for the input compound. Input: O=C1CCCC(=O)C1
Response: 0.0119

###

details: in isopropyl acetate, 328.15 K
value type: solubility (mole fraction)

Request: What does the record list as solubility (mole fraction) for O=C1CCCC(=O)C1 ?
Response: 0.0424

###

conditions: in n-propyl acetate, 298.15 K
value type: solubility (mole fraction)

Request: Quick one: solubility (mole fraction) for O=C1CCCC(=O)C1 ?
Response: 0.0176

###

conditions: in ethyl butyrate, 328.15 K
value type: solubility (mole fraction)
Form field (numeric): enter value without unit.

Request: Param item = O=C1CCCC(=O)C1 ; retrieve measured solubility (mole fraction).
Response: 0.0379

###

settings: in ethyl acetate, 298.15 K
value type: solubility (mole fraction)
Respond numerically, and do not add a unit to the figure.

Request: So what's the measured solubility (mole fraction) for this one? O=C1CCCC(=O)C1
Response: 0.0194

###

conditions: in ethyl formate, 323.15 K
value type: solubility (mole fraction)

Request: What value of measured solubility (mole fraction) is listed for O=C1CCCC(=O)C1 ?
Response: 0.0591

###

settings: in acetone, 323.15 K
value type: solubility (mole fraction)

Request: Look at this compound and give its reported solubility (mole fraction). O=C1CCCC(=O)C1
Response: 0.245

###

details: in ethyl acetate, 303.15 K
value type: solubility (mole fraction)

Request: Recorded solubility (mole fraction) of O=C1CCCC(=O)C1 , please.
Response: 0.0244

###

details: in chloroform, 308.15 K
value type: solubility (mole fraction)
Number only, no unit.

Request: Look at this molecule and give its reported solubility (mole fraction). O=C1CCCC(=O)C1
Response: 0.364

###

settings: in ethyl propionate, 303.15 K
value type: solubility (mole fraction)
Respond with the number and no other words.

Request: Look up solubility (mole fraction): O=C1CCCC(=O)C1
Response: 0.0203

###

conditions: in isopropyl acetate, 308.15 K
value type: solubility (mole fraction)

Request: Which measured solubility (mole fraction) value corresponds to O=C1CCCC(=O)C1 ?
Response: 0.0228

###

details: in acetone, 288.15 K
value type: solubility (mole fraction)
Could you keep your reply to the number by itself?

Request: Recorded solubility (mole fraction) for O=C1CCCC(=O)C1 , please?
Response: 0.0488

###

conditions: in toluene, 323.15 K
value type: solubility (mole fraction)
Write no unit; give the number alone.

Request: Report solubility (mole fraction) for O=C1CCCC(=O)C1 please.
Response: 0.0136

###

details: in ethyl propionate, 308.15 K
value type: solubility (mole fraction)
Please state the value as a number alone, without comment.

Request: Entry under review: O=C1CCCC(=O)C1 . Reported solubility (mole fraction)?
Response: 0.0246

###

settings: in toluene, 308.15 K
value type: solubility (mole fraction)
Give a plain numeric answer without units written out.

Request: I have this compound here, O=C1CCCC(=O)C1 , and I need its recorded solubility (mole fraction).
Response: 0.00577

###

conditions: in 2-butanone, 313.15 K
value type: solubility (mole fraction)
Answer as a number with no unit attached.

Request: Suppose we examine the compound O=C1CCCC(=O)C1 ; what solubility (mole fraction) value has been reported?
Response: 0.133

###

conditions: in ethyl acetate, 313.15 K
value type: solubility (mole fraction)
Write the value as a bare number.

Request: Name the reported solubility (mole fraction) value associated with the compound O=C1CCCC(=O)C1
Response: 0.039

###

conditions: in n-butyl acetate, 328.15 K
value type: solubility (mole fraction)
I only need the number, thanks.

Request: Entry O=C1CCCC(=O)C1 has what solubility (mole fraction)?
Response: 0.0457

###

settings: in acetonitrile, 323.15 K
value type: solubility (mole fraction)
Respond using a number only.

Request: Name the recorded solubility (mole fraction) for O=C1CCCC(=O)C1 .
Response: 0.09

###

settings: in toluene, 288.15 K
value type: solubility (mole fraction)
// no unit string in output, number only

Request: Could you tell me which solubility (mole fraction) is on file for O=C1CCCC(=O)C1 ?
Response: 0.00171

###

details: in isopropyl acetate, 313.15 K
value type: solubility (mole fraction)

Request: I would be grateful if you could share the reported solubility (mole fraction) for O=C1CCCC(=O)C1 .
Response: 0.0269

###

conditions: in 2-butanone, 303.15 K
value type: solubility (mole fraction)
API doc: respond with a numeric literal and nothing else, no unit.

Request: Dear colleague, I am looking for the recorded solubility (mole fraction) of the following compound: O=C1CCCC(=O)C1
Response: 0.0727

###

conditions: in n-propyl acetate, 318.15 K
value type: solubility (mole fraction)

Request: Using the record for O=C1CCCC(=O)C1 , report its solubility (mole fraction).
Response: 0.0381

###

conditions: in ethyl propionate, 313.15 K
value type: solubility (mole fraction)
Lab note: record just the number, no unit beside it.

Request: # lookup: solubility (mole fraction) of O=C1CCCC(=O)C1
Response: 0.0294

###

conditions: in acetonitrile, 298.15 K
value type: solubility (mole fraction)
// keep it numeric: no unit symbol after the value

Request: Quick check: solubility (mole fraction) of O=C1CCCC(=O)C1 ?
Response: 0.0258

###

details: in 2-butanone, 328.15 K
value type: solubility (mole fraction)
Could you keep your reply to the number by itself?

Request: What value of measured solubility (mole fraction) is listed for O=C1CCCC(=O)C1 ?
Response: 0.264

###

settings: in 2-butanone, 288.15 K
value type: solubility (mole fraction)
Lab note: jot the number down without any unit.

Request: Reported solubility (mole fraction), compound O=C1CCCC(=O)C1 : ____
Response: 0.0273
